Value source: ChEMBL document CHEMBL3271956

- Test system: Rattus norvegicus
- PROCEDURE_DETAILS: Local anesthetic activity in rat assessed as duration of action at 2% administered as base by sciatic nerve block method
- Type: functional
MEASUREMENT_NAME: Time (min)
Answer format: numeric, min implied, no suffix.

CN1CCCCC12C(=O)Nc1ccccc12 (stereo not drawn) | 97

-- ask Fill blank: measured Time of the molecule CN1CCC2(C1)C(=O)Nc1ccccc12 (stereo not drawn) is ____.
-- reply 83

-- ask What about this molecule? CCN1CCCC12C(=O)Nc1ccccc12 (stereo not drawn)
-- reply 107

-- ask What about this molecule? CCCN1CCCC2(C1)C(=O)Nc1ccccc12.O=S(=O)(O)O (stereo not drawn)
-- reply 95

-- ask What about this molecule? CCN1CCC2(CC1)C(=O)Nc1ccccc12
-- reply 120

-- ask What about this molecule? CCN1CCC2(C1)C(=O)Nc1ccccc12 (stereo not drawn)
-- reply 85

-- ask What about this molecule? CCN(CC)CC(=O)Nc1c(C)cccc1C
-- reply 141

-- ask What about this molecule? CCCN1CCC2(C1)C(=O)Nc1ccccc12.Cl (stereo not drawn)
-- reply 78

----------
- Test system: Rattus norvegicus
- PROCEDURE_DETAILS: Local anesthetic activity in rat assessed as onset time at 2% administered as base by sciatic nerve block method
- Type: functional
Below: a set of entries, each annotated with reported Time.
Answer format: numeric, min implied, no suffix.

Worked examples, 3 molecules total:
CCN1CCC2(C1)C(=O)Nc1c(C)cccc12.Cl (stereo not given) | 2
CCCN1CCCC2(C1)C(=O)Nc1ccccc12.O=S(=O)(O)O (stereo not given) | 4
CCN(CC)CC(=O)Nc1c(C)cccc1C [LIDOCAINE] | 1

-- ask Fill blank: measured Time of the molecule CCN1CCC2(CC1)C(=O)Nc1c(C)cccc12 is ____.
-- reply 3

-- ask What about this molecule? CCN1CCCC12C(=O)Nc1ccccc12 (stereo not given)
-- reply 5

-- ask What about this molecule? CN1CCCCC12C(=O)Nc1ccccc12 (stereo not given)
-- reply 3

-- ask What about this molecule? CN1CCC2(C1)C(=O)Nc1ccccc12 (stereo not given)
-- reply 6

-- ask What about this molecule? CCN1CCC2(C1)C(=O)Nc1ccccc12 (stereo not given)
-- reply 3

-- ask What about this molecule? CCCN1CCC2(C1)C(=O)Nc1ccccc12.Cl (stereo not given)
-- reply 2

-- ask What about this molecule? CCN1CCC2(CC1)C(=O)Nc1ccccc12
-- reply 5

----------
- PROCEDURE_DETAILS: Toxicity in iv dosed mouse
- Assay type: organism-based
- RUN_PARAMETERS: in vivo
MEASUREMENT_NAME: LD50

CCN1CCC2(CC1)C(=O)Nc1ccccc12 | 53 mg/kg
CCN1CCC2(CC1)C(=O)Nc1c(C)cccc12 | 21 mg/kg

As a next step, examine the molecule that follows.
-- ask Fill blank: measured LD50 of the molecule CCN1CCC2(C1)C(=O)Nc1ccccc12 (stereo not drawn) is ____.
-- reply 38 mg/kg
